B1: PCDHGA10 (parent)
chain: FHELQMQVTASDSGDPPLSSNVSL

Variants of: B1
TEST_SUMMARY: protein stability index of a GFP-peptide fusion (GPS, HEK-293T) (PSI 1-6); higher = more stable;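 also: lentivirally expressed fusions sorted by FACS into six bins by GFP to DsRed ratio, PSI derived from sequencing read proportions per bin multiplied by bin number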
EXPERIMENTAL_PARAMETERS: c terminus: a fixed tail appended
Kindly state protein stability index for each of the entries shown.
Give only the figure.

Briefly, protein stability index measured for NHELQMQVTASDSGDPPLSSNVSL [F1N] : 4.61

Briefly, protein stability index measured for RHELQMQVTASDSGDPPLSSNVSL [F1R] : 4.66

Briefly, protein stability index measured for FHEVQMQVTASDSGDPPLSSNVSL [L4V] : 2.84

Briefly, protein stability index measured for FHELQMQVTESDSGDPPLSSNVSL [A10E] : 2.7

Briefly, protein stability index measured for FHELQMQVTASVSGDPPLSSNVSL [D12V] : 1.73

Briefly, protein stability index measured for FHELQMQVTASDSGPPPLSSNVSL [D15P] : 1.95

Briefly, protein stability index measured for FHELQMQVTASDSGDPFLSSNVSL [P17F] : 1.97

Briefly, protein stability index measured for FHELQMQVTASDSGDPPLSSNVSQ [L24Q] : 3.26

Briefly, protein stability index measured for FHELQMQVWASDSGDPPLSSNVSL [T9W] : 2.95

Briefly, protein stability index measured for FHELQMQVTASDSGYPPLSSNVSL [D15Y] : 1.42

Briefly, protein stability index measured for FHELQMQVTASDSGDNPLSSNVSL [P16N] : 2.23

Briefly, protein stability index measured for FHELQMQVFASDSGDPPLSSNVSL [T9F] : 2.63

Briefly, protein stability index measured for FHELQMQCTASDSGDPPLSSNVSL [V8C] : 2.56

Briefly, protein stability index measured for FHWLQMQVTASDSGDPPLSSNVSL [E3W] : 2.54

Briefly, protein stability index measured for FHELQMQVSASDSGDPPLSSNVSL [T9S] : 2.16

Briefly, protein stability index measured for FHELQMQVTASDSIDPPLSSNVSL [G14I] : 2.12

Briefly, protein stability index measured for FHELQMQVTASDSGDPPTSSNVSL [L18T] : 2.74

Briefly, protein stability index measured for FHELTMQVTASDSGDPPLSSNVSL [Q5T] : 2.16

Briefly, protein stability index measured for FHELQMQVTASDSGWPPLSSNVSL [D15W] : 3.09

Briefly, protein stability index measured for FHELQMQDTASDSGDPPLSSNVSL [V8D] : 4.05

Briefly, protein stability index measured for FHEDQMQVTASDSGDPPLSSNVSL [L4D] : 3.84

Briefly, protein stability index measured for FHELQMQVTASDSGDPPLSGNVSL [S20G] : 1.91

Briefly, protein stability index measured for FHELQMQVTASDSGLPPLSSNVSL [D15L] : 1.64

Briefly, protein stability index measured for FHELQMQVTASYSGDPPLSSNVSL [D12Y] : 2.54

Briefly, protein stability index measured for FHELQMQVTASDSGDPPLSSNESL [V22E] : 3.24

Briefly, protein stability index measured for FHELQMQVTASDSGDPPFSSNVSL [L18F] : 2.56

Briefly, protein stability index measured for FHALQMQVTASDSGDPPLSSNVSL [E3A] : 1.91

Briefly, protein stability index measured for FHELQMQVTASDSDDPPLSSNVSL [G14D] : 2.6

Briefly, protein stability index measured for FHELQMQVTASDSGDPPYSSNVSL [L18Y] : 2.15

Briefly, protein stability index measured for FHELQMQVVASDSGDPPLSSNVSL [T9V] : 2.12

Briefly, protein stability index measured for FHELQMQVTASDMGDPPLSSNVSL [S13M] : 2.08

Briefly, protein stability index measured for FHELQMQVTASDSGDYPLSSNVSL [P16Y] : 1.59

Source: the supplement of paper PMC10567573
